Values were extracted from patent US20150232544A1.

target: eTau1b (UniProt P10636); experiment: relative binding affinity, method not named; eTau 1b
METRIC NAME: Kd

[ask] Read off the recorded Kd for humanized IPN002 variant VH1/Vk1 (antibody, V domains shown) VH: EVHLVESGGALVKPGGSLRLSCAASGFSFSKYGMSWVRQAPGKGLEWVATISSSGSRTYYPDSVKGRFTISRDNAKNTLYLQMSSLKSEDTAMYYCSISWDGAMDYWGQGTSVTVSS VL: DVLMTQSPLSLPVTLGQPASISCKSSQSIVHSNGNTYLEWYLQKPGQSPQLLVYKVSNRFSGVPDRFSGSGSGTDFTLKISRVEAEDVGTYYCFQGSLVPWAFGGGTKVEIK
[reply] 737 pM

[ask] Please supply the value of reported Kd for the item humanized IPN002 variant VH3/Vk3 (antibody, V domains shown) VH: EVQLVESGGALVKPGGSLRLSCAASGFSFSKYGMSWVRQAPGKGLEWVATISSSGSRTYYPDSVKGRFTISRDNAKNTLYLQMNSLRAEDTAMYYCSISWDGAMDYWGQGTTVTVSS VL: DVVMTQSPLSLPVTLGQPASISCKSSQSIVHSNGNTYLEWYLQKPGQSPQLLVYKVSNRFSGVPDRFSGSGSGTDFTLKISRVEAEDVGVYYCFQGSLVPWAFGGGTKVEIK
[reply] 689 pM

[ask] Entry humanized IPN002 variant VH4/Vk2 (antibody, V domains shown) VH: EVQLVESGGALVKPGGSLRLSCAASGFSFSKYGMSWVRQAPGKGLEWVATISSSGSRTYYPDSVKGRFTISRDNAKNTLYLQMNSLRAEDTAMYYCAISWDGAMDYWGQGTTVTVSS VL: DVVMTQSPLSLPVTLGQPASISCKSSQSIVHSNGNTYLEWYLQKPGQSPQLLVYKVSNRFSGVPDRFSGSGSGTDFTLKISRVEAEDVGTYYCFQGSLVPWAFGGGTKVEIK needs its Kd filled in; supply it.
[reply] 483 pM
